# System: 439559-082-T-J2-PDC complex spheroid growth
# Experiment Summary: Anticancer human tumor 439559-082-T-J2-PDC patient-derived colon adenocarcinoma cell line growth inhibition [Asc]
# Condition Info: second compound 3.16 µM; first compound 0.00316 µM; stronger effect = lower value
# Description: Multicellular complex tumor spheroid response to apoptosis pathway targeting inhibitors Alrizomadlin, Pelcitoclax, and Dasminapant in combination with a variety of drugs and investigational agents in selected tumor cell lines […] Compounds. […] If the clinical Cmax for an agent had not been determined, the highest concentration tested was 10 microM. […]
# strict inequality: viability, T/C < 90% yields satisfied, everything else yields not satisfied

CCN1CCN(Cc2ccc(Nc3ncc(F)c(-c4cc(F)c5nc(C)n(C(C)C)c5c4)n3)nc2)CC1 + Cc1c(S(C)(=O)=O)c(-c2cc(F)cc(N3CCN(c4ccc(NS(=O)(=O)c5ccc(NC(CCN6CCC(C(=O)OCCCP(=O)(O)O)CC6)CSc6ccccc6)c(S(=O)(=O)C(F)(F)F)c5)cc4)CC3)c2)c(-c2ccc(Cl)cc2)n1C(C)C :: satisfied
COc1c(OCCCN2CCOCC2)ccc2c3n(c(=NC(=O)c4cnc(N)nc4)nc12)CCN3 + Cc1c(S(C)(=O)=O)c(-c2cc(F)cc(N3CCN(c4ccc(NS(=O)(=O)c5ccc(NC(CCN6CCC(C(=O)OCCCP(=O)(O)O)CC6)CSc6ccccc6)c(S(=O)(=O)C(F)(F)F)c5)cc4)CC3)c2)c(-c2ccc(Cl)cc2)n1C(C)C :: satisfied
NC1CCC(NC2CC2c2ccccc2)CC1 (stereo unspecified) + Cc1c(S(C)(=O)=O)c(-c2cc(F)cc(N3CCN(c4ccc(NS(=O)(=O)c5ccc(NC(CCN6CCC(C(=O)OCCCP(=O)(O)O)CC6)CSc6ccccc6)c(S(=O)(=O)C(F)(F)F)c5)cc4)CC3)c2)c(-c2ccc(Cl)cc2)n1C(C)C :: not satisfied

Pending compound:
-- ask # strict comparison: is reported viability, T/C < 90%? input = Cn1ncnc1[C@H]1c2n[nH]c(=O)c3cc(F)cc(c23)N[C@@H]1c1ccc(F)cc1 + Cc1c(S(C)(=O)=O)c(-c2cc(F)cc(N3CCN(c4ccc(NS(=O)(=O)c5ccc(NC(CCN6CCC(C(=O)OCCCP(=O)(O)O)CC6)CSc6ccccc6)c(S(=O)(=O)C(F)(F)F)c5)cc4)CC3)c2)c(-c2ccc(Cl)cc2)n1C(C)C
-- reply not satisfied

====

# System: 439559-082-T-J2-PDC complex spheroid growth
# Experiment Summary: Anticancer human tumor 439559-082-T-J2-PDC cell line growth inhibition [Asc];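 also: spheroids exposed to agents for 7 days starting day 3 after seeding; percent of DMSO vehicle control viability with 100% = vehicle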
# Condition Info: second compound 0.316 µM; first compound 0.000316 µM; stronger effect = lower value
So I've got a bunch of compounds here, and I need their viability, T/C values.

NC1CCC(NC2CC2c2ccccc2)CC1 (centres undefined) + Cc1c(S(C)(=O)=O)c(-c2cc(F)cc(N3CCN(c4ccc(NS(=O)(=O)c5ccc(NC(CCN6CCC(C(=O)OCCCP(=O)(O)O)CC6)CSc6ccccc6)c(S(=O)(=O)C(F)(F)F)c5)cc4)CC3)c2)c(-c2ccc(Cl)cc2)n1C(C)C :: 99.4%
Cn1ncnc1[C@H]1c2n[nH]c(=O)c3cc(F)cc(c23)N[C@@H]1c1ccc(F)cc1 + Cc1c(S(C)(=O)=O)c(-c2cc(F)cc(N3CCN(c4ccc(NS(=O)(=O)c5ccc(NC(CCN6CCC(C(=O)OCCCP(=O)(O)O)CC6)CSc6ccccc6)c(S(=O)(=O)C(F)(F)F)c5)cc4)CC3)c2)c(-c2ccc(Cl)cc2)n1C(C)C :: 100%
Cn1ncnc1[C@H]1c2n[nH]c(=O)c3cc(F)cc(c23)N[C@@H]1c1ccc(F)cc1 + CNC(C)C(=O)NC1CN(S(=O)(=O)c2cccc(S(=O)(=O)N3CCC4CCC(C(=O)NC(c5ccccc5)c5ccccc5)N4C(=O)C(NC(=O)C(C)NC)C3)c2)CCC2CCC(C(=O)NC(c3ccccc3)c3ccccc3)N2C1=O :: 99.8%

As a next step, examine the compound that follows.
Looking up NC1CCC(NC2CC2c2ccccc2)CC1 (centres undefined) + CNC(C)C(=O)NC1CN(S(=O)(=O)c2cccc(S(=O)(=O)N3CCC4CCC(C(=O)NC(c5ccccc5)c5ccccc5)N4C(=O)C(NC(=O)C(C)NC)C3)c2)CCC2CCC(C(=O)NC(c3ccccc3)c3ccccc3)N2C1=O , I see its viability, T/C listed as 95.9%

====

# Test system: 439559-082-T-J2-PDC complex spheroid growth
# Experiment Summary: Anticancer human tumor 439559-082-T-J2-PDC cell line growth inhibition [Asc];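 also: spheroids exposed to agents for 7 days starting day 3 after seeding; percent of DMSO vehicle control viability with 100% = vehicle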
# Condition Info: second compound 1 µM; first compound 0.03 µM; stronger effect = lower value
Attribute Measured: viability, T/C (%)
Answers are plain numbers, in %.

Use these answered entries as a reference point.
NC(=O)C(=Cn1cnc(-c2cc(C(F)(F)F)cc(C(F)(F)F)c2)n1)c1cncnc1 + Cc1c(S(C)(=O)=O)c(-c2cc(F)cc(N3CCN(c4ccc(NS(=O)(=O)c5ccc(NC(CCN6CCC(C(=O)OCCCP(=O)(O)O)CC6)CSc6ccccc6)c(S(=O)(=O)C(F)(F)F)c5)cc4)CC3)c2)c(-c2ccc(Cl)cc2)n1C(C)C :: 78
CCN1C(C(=O)NC23CCC(C(=O)O)(CC2)CC3)C(c2cccc(Cl)c2F)C2(C(=O)Nc3cc(Cl)ccc32)C12CCCCC2 (stereo not drawn) + Cc1c(S(C)(=O)=O)c(-c2cc(F)cc(N3CCN(c4ccc(NS(=O)(=O)c5ccc(NC(CCN6CCC(C(=O)OCCCP(=O)(O)O)CC6)CSc6ccccc6)c(S(=O)(=O)C(F)(F)F)c5)cc4)CC3)c2)c(-c2ccc(Cl)cc2)n1C(C)C :: 97

# context switch: different compound, same viability, T/C
Notebook: Cc1nc(N2CCC3(CC2)COC(C)C3N)c(CO)nc1Sc1ccnc(N)c1Cl (stereo not drawn) + CNC(C)C(=O)NC1CN(S(=O)(=O)c2cccc(S(=O)(=O)N3CCC4CCC(C(=O)NC(c5ccccc5)c5ccccc5)N4C(=O)C(NC(=O)C(C)NC)C3)c2)CCC2CCC(C(=O)NC(c3ccccc3)c3ccccc3)N2C1=O , viability, T/C read as 76.8

====

# Tested on: 439559-082-T-J2-PDC complex spheroid growth
# Experiment Summary: Anticancer human tumor 439559-082-T-J2-PDC cell line growth inhibition [Asc];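 also: spheroids exposed to agents for 7 days starting day 3 after seeding; percent of DMSO vehicle control viability with 100% = vehicle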
# Condition Info: second compound 0.00316 µM; first compound 0.0316 µM; stronger effect = lower value
Attribute Measured: viability, T/C

Past entries and their recorded results:
COc1c(OCCCN2CCOCC2)ccc2c3n(c(=NC(=O)c4cnc(N)nc4)nc12)CCN3 + CNC(C)C(=O)NC1CN(S(=O)(=O)c2cccc(S(=O)(=O)N3CCC4CCC(C(=O)NC(c5ccccc5)c5ccccc5)N4C(=O)C(NC(=O)C(C)NC)C3)c2)CCC2CCC(C(=O)NC(c3ccccc3)c3ccccc3)N2C1=O :: 98.9%
CCN1CCN(Cc2ccc(Nc3ncc(F)c(-c4cc(F)c5nc(C)n(C(C)C)c5c4)n3)nc2)CC1 + CNC(C)C(=O)NC1CN(S(=O)(=O)c2cccc(S(=O)(=O)N3CCC4CCC(C(=O)NC(c5ccccc5)c5ccccc5)N4C(=O)C(NC(=O)C(C)NC)C3)c2)CCC2CCC(C(=O)NC(c3ccccc3)c3ccccc3)N2C1=O :: 91%
O=C(c1ccc(F)c(F)c1Nc1ccc(I)cc1F)N1CC(O)([C@@H]2CCCCN2)C1 + CNC(C)C(=O)NC1CN(S(=O)(=O)c2cccc(S(=O)(=O)N3CCC4CCC(C(=O)NC(c5ccccc5)c5ccccc5)N4C(=O)C(NC(=O)C(C)NC)C3)c2)CCC2CCC(C(=O)NC(c3ccccc3)c3ccccc3)N2C1=O :: 76.8%

Query O=C(c1cc(Cc2n[nH]c(=O)c3ccccc23)ccc1F)N1CCN(C(=O)C2CC2)CC1 + CNC(C)C(=O)NC1CN(S(=O)(=O)c2cccc(S(=O)(=O)N3CCC4CCC(C(=O)NC(c5ccccc5)c5ccccc5)N4C(=O)C(NC(=O)C(C)NC)C3)c2)CCC2CCC(C(=O)NC(c3ccccc3)c3ccccc3)N2C1=O yields viability, T/C of 54.7%

====

# System: 439559-082-T-J2-PDC complex spheroid growth
# Experiment Summary: Anticancer human tumor 439559-082-T-J2-PDC cell line growth inhibition [Asc];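 also: spheroids exposed to agents for 7 days starting day 3 after seeding; percent of DMSO vehicle control viability with 100% = vehicle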
# Condition Info: second compound 3 µM; first compound 0.1 µM; stronger effect = lower value
Attribute Measured: viability, T/C (%)
Give bare numbers, in %.

C=CC(=O)N1CCN(c2nc(=O)n(-c3c(C)ccnc3C(C)C)c3nc(-c4c(O)cccc4F)c(F)cc23)C(C)C1 (configuration not stated) + CCN1C(C(=O)NC23CCC(C(=O)O)(CC2)CC3)C(c2cccc(Cl)c2F)C2(C(=O)Nc3cc(Cl)ccc32)C12CCCCC2 :: 94.6

The reported viability, T/C value, 439559-082-T-J2-PDC complex spheroid growth, for COc1c(OCCCN2CCOCC2)ccc2c3n(c(=NC(=O)c4cnc(N)nc4)nc12)CCN3 + CCN1C(C(=O)NC23CCC(C(=O)O)(CC2)CC3)C(c2cccc(Cl)c2F)C2(C(=O)Nc3cc(Cl)ccc32)C12CCCCC2 reads 63
